Hello, the source for this data is paper PMC5923123, in case you need it.

# ASSAY_PROCEDURE: in vivo
# TEST_SETTINGS: mouse
MEASURED_QUANTITY: concentration at 24 h

In [3]: df
Out[3]:
                              smiles_string              result
0  Cc1cc(N2CCN(c3ccc(C(=O)N[C@H]4CCCC[C@@H]4O)cc3)CC2)ccc1OC[C@@H]1CO[C@@](Cn2cncn2)(c2ccc(F)cc2F)C1  41.5 to 50.7 ng/mL

q: What value of concentration at 24 h has been reported for the following compound? CC[C@@H]([C@H](C)O)n1ncn(-c2ccc(N3CCN(c4ccc(OC[C@@H]5CO[C@@](Cn6cncn6)(c6ccc(F)cc6F)C5)cc4)CC3)cc2)c1=O
a: 15.6 to 125 ng/mL
